Below is a list of entries, each paired with its recorded protein stability index value.
B1: STK38L (parent)
chain: RQLAYSTVGTPDYIAPEVFMQTGY

# Variants of: B1
# EXPERIMENTAL_DETAILS: protein stability index of a GFP-peptide fusion (GPS, HEK-293T) (PSI 1-6); higher = more stable;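 also: lentivirally expressed fusions sorted by FACS into six bins by GFP to DsRed ratio, PSI derived from sequencing read proportions per bin multiplied by bin number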
# REPORTED_CONDITIONS: c terminus: a fixed tail appended
// keep it numeric: no unit symbol after the value

- MONOMER_SEQUENCE: "RQLAYSTVGTPDYIAPGVFMQTGY"
  protein stability index: 2.39

Field protein stability index (entry "RQLTYSTVGTPDYIAPEVFMQTGY" ) reads 2.55

Field protein stability index (entry "RQLAYSTVGTPDYIAPEVFMQTRY" ) reads 2.83
